tested on: OVCAR-8 ovarian; assay: NCI tumour cell line growth inhibition, 48 h
// TGI lookup, one value per entry

Form: molecule = `O=c1[nH]nc2c3c(cccc13)NC(CN1Cc3ccccc3C1)=N2` ; TGI = > 100 µM

Form: molecule = `COc1cc2cnc3c(c2cc1OC)Cc1cc2c(cc1-3)OCO2` ; TGI = > 100 µM

Form: molecule = `COc1ccc(C(=O)c2cc(OC)c(OC)c(OC)c2)cc1O` ; TGI = > 100 µM

###

// TGI lookup, one value per entry
system: SK-MEL-2 melanoma; test: NCI tumour cell line growth inhibition, 48 h

# count of solved cases: 5
Cc1nn2c(/C=C3/C(=O)Nc4ccccc43)c(-c3ccc(Cl)cc3)nc2s1	> 50 µM
CC1OC(OC2C(Oc3cc(O)c4c(=O)cc(-c5ccc(O)cc5)oc4c3)OC(CO)C(O)C2O)C(O)C(O)C1O (stereo not given)	> 100 µM
CC1(C)N=C(N)N=C(N)N1c1ccc(CCCCc2ccc(Cl)cc2Cl)cc1	13.5 µM
CCOC(=O)CC[C@@H](NC(=O)c1ccc(NCc2ccc3nc(OC)c(OC)nc3c2)cc1)C(=O)OCC	40.6 µM
C[C@@H]1CCN(C(=O)CC#N)C[C@@H]1N(C)c1ncnc2[nH]ccc12	> 100 µM

Form: compound = `COc1cc(-c2cn(-c3ccc(Cl)cc3)c(=O)[nH]2)cc(OC)c1OC` ; TGI = > 100 µM

Form: compound = CCOP(=O)(OCC)C(Cc1ccccc1)N=C(c1ccccc1)c1ccccc1 (stereo not given) ; TGI = 38.2 µM

###

tested on: A549 NSCLC; experiment: NCI tumour cell line growth inhibition, 48 h
// TGI lookup, one value per entry
Write down the numeric answer in µM and omit the unit.

O=C(COC(=O)c1ccccc1)c1ccc(Br)cc1	40.5
C=CC1(CBr)CCC(C(C)(C)Br)O1 (centres undefined)	33.9
CC(=O)O[C@@H]1CC(C)C2CC2C2=C(C(O)OC2O)[C@@H]1C(C)CCC=C(C)C (some centres undefined)	51.7
COc1ncc(C#CC(=O)c2ccccc2OC)c(OC)n1	19
Cc1c(C(=O)CC(=O)C(=O)Nc2cccc(C(F)(F)F)c2)[n+](=O)c2ccccc2n1[O-]	32.1
Cc1nn2c(/C=C3/C(=O)Nc4ccc(Cl)cc43)c(-c3ccccc3)nc2s1	5.51
CCc1nc2ccc(Cc3ccc(C(=O)NO)cc3)cc2c(=O)n1CCc1ccccc1	2.99

Next up:
Form: compound = COC1CC(OS(=O)(=O)c2ccc(C)cc2)C(OS(=O)(=O)c2ccc(C)cc2)C(COS(=O)(=O)c2ccc(C)cc2)O1 (centres undefined) ; TGI = 19.3

###

// TGI lookup, one value per entry
test system: 786-0 renal; assay: NCI tumour cell line growth inhibition, 48 h
Write down the numeric answer in µM and omit the unit.

# count of solved cases: 6
O=C(Nc1ccncc1)C(=O)c1cn(S(=O)(=O)c2ccccc2F)c2ccccc12	40.9
OCCCN(CCc1ccc(Cl)c(Cl)c1)CCN1CCCC1	60.4
Cn1c2ccc([N+](=O)[O-])cc2c(=O)c2c(O)cc(O)cc21	47
c1ccc2c(Cc3c[nH]c4ccccc34)c[nH]c2c1	33.6
CN(C)CCCn1c2c3ccccc3ccc2c2oc(=O)c3ccccc3c21	5.54
NC(=NC1CCCCCC1)c1ccc(N2CCN(c3ccc(C(N)=NC4CCCCCC4)cc3)CC2)cc1	43.9

Form: compound = `C/C(=N/NC(=S)N(Cc1ccccn1)Cc1ccccn1)c1cnccn1` ; TGI = 7.97

Form: compound = `CC[O-].CC[O-].O=Nc1ccc2cc([O-])ccc2c1.O=Nc1ccc2cc([O-])ccc2c1.[Ti+4]` ; TGI = 3.05

Form: compound = C=CC1(CBr)CCC(C(C)(C)Br)O1 (configuration not stated) ; TGI = 6.56

Form: compound = `NC(=O)C1=C(c2ccccc2)c2ccccc2C1=O` ; TGI = 30.5

Form: compound = `Cc1ccc(NC(=S)NNC(=O)c2cc(-c3ccccc3)nc3ccccc23)cc1C` ; TGI = 33.7

Form: compound = `O=[N+]([O-])/C(C(Cl)=C(Cl)Cl)=C(/Sc1ccccc1)N1CCOCC1` ; TGI = 4.51

Form: compound = `Cc1cc2c(C(N)=O)cccc2n1-c1nc2c(c(NCc3ccccc3)n1)CCCN2` ; TGI = 0.519

Form: compound = `C/C=C/[C@@H]1O[C@H](CC#C[Si](C)(C)C)[C@@]2(C=O)C(C)=CC[C@H](C(C)C)[C@@H]12` ; TGI = 31.3

Form: compound = `O=Cc1[nH]c2ccccc2c1Br` ; TGI = 66.3

Form: compound = `O=C(Nc1cc(Cl)ccc1O)c1cccc(NC2=C(Cl)C(=O)N(Cc3ccccc3)C2=O)c1` ; TGI = 50.9

Form: compound = `C#CC[C@H](c1nc2cc(Cl)ccc2c(=O)n1Nc1ccccc1)N(CCCN)C(=O)c1cccc(Cl)c1F` ; TGI = 2.63

Form: compound = `O=C1C(Cl)=C(N2CCOCC2)C(=O)c2ccccc21` ; TGI = 31.2

Form: compound = CCOC(=O)NNC1(SC)NC(=O)c2c(cc(Cl)oc2=O)O1 (configuration not stated) ; TGI = 4.84

Form: compound = `O=[N+]([O-])C(=C/C1CCCCC1)/C(=C\C1CCCCC1)[N+](=O)[O-]` ; TGI = 4.11

###

// TGI lookup, one value per entry
test system: SW-620 colon; test: NCI tumour cell line growth inhibition, 48 h

CSc1nc(-c2cc3c(c(SC)n2)CCC3)cc2c1CCC2	> 100 µM
COc1ccc(C2=C(c3cn(C)c4ccccc34)C(=O)NC2=O)cc1OC	> 25 µM
CN(C)CCCNC(=O)CNC(=O)c1cc(NC(=O)c2cc(NC(=O)c3cc(NC(=O)CCNC(=O)c4cc(NC(=O)c5cc(NC(=O)c6nccn6C)cn5C)cn4C)cn3C)cn2C)cn1C	> 100 µM
O=C(Nc1ccncc1)C(=O)c1cn(S(=O)(=O)c2ccccc2F)c2ccccc12	> 100 µM
COc1ccccc1/C=C1/Sc2scc(CC(=O)Nc3ccccc3)[n+]2C1=O	> 100 µM

Form: compound = CC1=CC[C@H](C)C(C)(C)C1/C=C/C(C)=C/CC[C@@]1(CO)[C@H](CCCO)/C(=C(/C)C=O)CC[C@]1(C)O (stereo partly drawn) ; TGI = 12.5 µM

Form: compound = `COC[C@H]1OC(=O)c2coc3c2[C@@]1(C)C1=C(C3=O)[C@@H]2CCC(=O)[C@@]2(C)C[C@H]1OC(C)=O` ; TGI = > 100 µM

Form: compound = `c1cncc(C(Nc2cccc3cccnc23)Nc2cccc3cccnc23)c1` ; TGI = > 100 µM

###

tested on: MOLT-4 leukemia; assay: NCI tumour cell line growth inhibition, 48 h; in the data active means GI50 below about 0.43 µM; inactive means the rest
I would appreciate it if you answered using one of these outcomes: active, inactive

input: Hi, do you know how `CCOc1cc2ncc(C#N)c(Nc3ccc(F)c(Cl)c3)c2cc1NC(=O)/C=C/CN(C)C` came out in this test?
output: inactive

input: Hi, do you know how `COc1cc(-c2cn(-c3ccc(Cl)cc3)c(=O)[nH]2)cc(OC)c1OC` came out in this test?
output: active

input: Hi, do you know how `c1cncc(CNc2ccccc2-c2nnc(Nc3ccc4c(c3)OCCO4)o2)c1` came out in this test?
output: inactive

###

tested on: SW-620 colon; assay: NCI tumour cell line growth inhibition, 48 h
Property label: TGI

# count of solved cases: 5
COc1ccc(/C=N/n2c(C)n[nH]c2=O)cc1	> 100 µM
O=C(O)c1cc2c(cc1S(=O)(=O)O)C1C(C3C2C2(Cl)C(Cl)=C(Cl)C3(Cl)C2(Cl)Cl)C2(Cl)C(Cl)=C(Cl)C1(Cl)C2(Cl)Cl (stereo not given)	> 100 µM
COc1ccc(C2c3cc4c(cc3OC(N3CCOCC3)C2C)OCO4)c(OC)c1 (stereo not given)	52.5 µM
C/C(=N/NC(=S)N(Cc1ccccn1)Cc1ccccn1)c1cnccn1	49.2 µM
CN1CCN(Cc2ccc(NC(=O)c3[nH]ncc3Nc3ncnc4c3CCC4)cc2)CC1	10.3 µM

Next up:
The molecule `O=C(Nc1ccc2oc(=O)c(C(=O)O)cc2c1)Oc1ccccc1` , tested on SW-620 colon, showed TGI of > 100 µM

###

system: SW-620 colon; assay: NCI tumour cell line growth inhibition, 48 h
Property label: TGI

CC1=NN(C(=O)CC(=O)Nc2cccc(Cl)c2)C(=O)C1N=Nc1ccc(S(=O)(=O)c2ccc(N=NC3C(=O)N(C(=O)CC(=O)Nc4cccc(Cl)c4)N=C3C)cc2)cc1 (stereo not given)	> 100 µM
COc1ccc(C(=O)c2cc(OC)c(OC)c(OC)c2)cc1O	> 100 µM
FC(F)(F)C1(C(F)(F)F)OC(Cl)(Cl)C(Cl)(Cl)O1	> 10 µM

Next up:
Form: molecule = `NNC(=O)CCCCCCCC(=O)O` ; TGI = > 100 µM

The values you see were collected from PubChem BioAssay (NCI).
